- Target System: human enzyme NAMPT (full length) (Homo sapiens, UniProt P43490)
- Construct: human enzyme NAMPT (full length)
- Sequence (P43490 whole entry): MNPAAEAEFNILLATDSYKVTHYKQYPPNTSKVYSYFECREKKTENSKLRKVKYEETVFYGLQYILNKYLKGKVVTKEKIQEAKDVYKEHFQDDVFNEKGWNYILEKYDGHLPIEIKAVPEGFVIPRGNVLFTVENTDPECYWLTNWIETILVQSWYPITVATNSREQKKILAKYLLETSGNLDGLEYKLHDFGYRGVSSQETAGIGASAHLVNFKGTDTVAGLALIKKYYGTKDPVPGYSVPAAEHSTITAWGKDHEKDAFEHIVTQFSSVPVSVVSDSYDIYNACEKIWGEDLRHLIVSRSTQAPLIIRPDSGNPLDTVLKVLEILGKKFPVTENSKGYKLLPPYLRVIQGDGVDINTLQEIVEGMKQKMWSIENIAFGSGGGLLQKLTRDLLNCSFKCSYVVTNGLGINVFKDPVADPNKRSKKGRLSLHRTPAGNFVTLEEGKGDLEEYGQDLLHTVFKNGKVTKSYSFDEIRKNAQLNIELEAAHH
- Assay Text: NMN fluorescence biochemical assay (stimulation of NMN synthesis by NAMPT)
- Experimental Context: NMN fluorescence assay, purified human NAMPT 100 nM; concentration giving half-maximal activation; read-out: Enzymatic EC50
Overview of reported EC50 across a group of molecules:

Before answering, review these 3 worked examples.
O=C1c2ccccc2C(Cc2ncccc2Br)N1CC1CC2(CC(O)C2)C1 (stereo not shown) [Compound 321]    500 to 5000 nM
Cc1c(CC2c3ccccc3C(=O)N2Cc2ccc3[nH]nnc3c2)c(C#N)nn1C (stereo not shown) [Compound 393]    < 500 nM
O=C1NCC2(CC(CN3C(=O)c4ccccc4C3Cc3c(Cl)nc4sccn34)C2)O1 (stereo not shown) [Compound 469]    500 to 5000 nM

// below: EC50 requested for another molecule
Prompt: # input molecule: Cc1ccc(=O)n(C)c1CC1c2ccccc2C(=O)N1CC1CC2(CNC(=O)O2)C1 (stereo not shown) [Compound 493] ; wanted: its EC50
Completion: 500 to 5000 nM

====

This listing pairs compounds with measured pEC50.
- Target System: human enzyme NAMPT (full length) (Homo sapiens, UniProt P43490)
- Construct: human enzyme NAMPT (full length)
- Assay Text: NMN fluorescence biochemical assay (stimulation of NMN synthesis by NAMPT)
- Experimental Context: NMN fluorescence assay, purified human NAMPT 100 nM; concentration giving half-maximal activation; read-out: Enzymatic EC50
- Procedure: Certain compounds described herein were assayed for their ability to stimulate the synthesis of nicotinamide mononucleotide (NMN) by human enzyme NAMPT (full length). […] Fluorescence (Ex/Em=382/445 nm) was measured using an Envision plate reader. The potency measurements for the test compounds were quantified and represented as EC50 (concentration of a compound that gives half-maximal activation) and Emax (fold change of a compound's maximal activation compared to DMSO).
pEC50: −log10 of the molar value.

Solved entries:
Cn1ncc(Cl)c1CC1c2ccc(F)cc2C(=O)N1Cc1ccc2[nH]nnc2c1 (centres unmarked) [Compound 340]    > 6.30
Cn1ncc(Cl)c1CC1c2cc(C3COC3)ccc2C(=O)N1Cc1ccc2[nH]nnc2c1 (centres unmarked) [Compound 370]    > 6.30
O=C1c2ccccc2C(Cc2ncccc2Br)N1CC1CCc2[nH]nnc2C1 (centres unmarked) [Compound 332]    5.30 to 6.30

Prompt: Look up pEC50: Cn1c(CC2c3ccccc3C(=O)N2CC2CC3(CNC(=O)O3)C2)c(Cl)ccc1=O (centres unmarked) [Compound 467]
Completion: > 6.30

Prompt: Repeat for the following compound: Cc1nc(O)sc1CN1C(=O)c2ccccc2C1Cc1c(Cl)cnn1C (centres unmarked) [Compound 635]
Completion: 5.30 to 6.30

Prompt: What would you report for CSc1ccc(CN2C(=O)c3ccccc3C2Cc2c(Cl)cnn2C)cc1 (centres unmarked) [Compound 542] ?
Completion: ≤ 5.30

Prompt: Cool, now Cn1ncc(Cl)c1CC1c2cc(C#N)ccc2C(=O)N1CC1CC2(CNC(=O)O2)C1 (centres unmarked) [Compound 464]
Completion: 5.30 to 6.30

Prompt: Try this compound too: Cc1nc(Cl)c(CC2c3ccccc3C(=O)N2CC2CC3(CNC(=O)O3)C2)n1C (centres unmarked) [Compound 526]
Completion: 5.30 to 6.30

====

Quick reference for EC50 among some compounds
- Target System: human enzyme NAMPT (full length) (Homo sapiens, UniProt P43490)
- Construct: human enzyme NAMPT (full length)
- Assay Text: NMN fluorescence biochemical assay (stimulation of NMN synthesis by NAMPT)
- Experimental Context: NMN fluorescence assay, purified human NAMPT 100 nM; concentration giving half-maximal activation; read-out: Enzymatic EC50

Example compounds with recorded EC50:
COc1ccc(CN2C(=O)c3ccccc3C2Cc2c(Cl)cnn2C)cc1F (centres unmarked)    0.5 to 5 µM
COc1ccc(CN2C(=O)c3ccccc3C2Cc2c(Cl)cnn2C)nc1 (centres unmarked)    0.5 to 5 µM
Cn1ncc(Cl)c1CC1c2ccccc2C(=O)N1C/C(F)=C/c1c[nH]nc1Cl (centres unmarked)    0.5 to 5 µM
N#Cc1cncc(C#N)c1CC1c2ccccc2C(=O)N1CC1CC2(CNC(=O)O2)C1 (centres unmarked)    0.5 to 5 µM
Cn1nc(C#N)c(Cl)c1CC1c2ccccc2C(=O)N1CC1CC2(CNC(=O)O2)C1 (centres unmarked)    0.5 to 5 µM

Prompt: Consider the compound Cn1ncc(Cl)c1CC1c2ccccc2C2(CC2)N1CC1CC2(CNC(=O)O2)C1 (centres unmarked) and give its measured EC50.
Completion: ≥ 5 µM

Prompt: O=C1NCC2(CC(CN3C(=O)c4ccccc4C3Cc3nnsc3Cl)C2)O1 (centres unmarked) ?
Completion: ≥ 5 µM

Prompt: And the next one, COc1ccc(CN2C(=O)c3ccccc3C2Cc2c(C)ccnc2C#N)cc1 (centres unmarked) ?
Completion: < 0.5 µM

====

- Target System: human enzyme NAMPT (full length) (Homo sapiens, UniProt P43490)
- Construct: human enzyme NAMPT (full length)
- Assay Text: NMN fluorescence biochemical assay (stimulation of NMN synthesis by NAMPT)
- Experimental Context: fold change of maximal activation compared to DMSO
- Protocol: Certain compounds described herein were assayed for their ability to stimulate the synthesis of nicotinamide mononucleotide (NMN) by human enzyme NAMPT (full length). […] Fluorescence (Ex/Em=382/445 nm) was measured using an Envision plate reader. The potency measurements for the test compounds were quantified and represented as EC50 (concentration of a compound that gives half-maximal activation) and Emax (fold change of a compound's maximal activation compared to DMSO).
Measurement Name: Enzymatic Emax

Cc1c(CN2C(=O)c3ccccc3C2Cc2ncccc2Br)ccc2[nH]c(=O)oc12 (stereo not shown)    A (A>3)
COc1ccc(CN2C(Cc3c(Cl)cnn3C)c3ccccc3S2(=O)=O)cc1 (stereo not shown)    A (A>3)
N#Cc1ccc(Br)c(CC2c3ccccc3C(=O)N2Cc2ccc3[nH]c(=O)oc3c2)n1 (stereo not shown)    A (A>3)

====

- Target System: human enzyme NAMPT (full length) (Homo sapiens, UniProt P43490)
- Construct: human enzyme NAMPT (full length)
- Assay Text: NMN fluorescence biochemical assay (stimulation of NMN synthesis by NAMPT)
- Experimental Context: NMN fluorescence assay, purified human NAMPT 100 nM; concentration giving half-maximal activation; read-out: Enzymatic EC50
pEC50: −log10 of the molar value.
Entries annotated with measured pEC50

COc1nn(C)c(CC2c3ccccc3C(=O)N2CC2CC3(CNC(=O)O3)C2)c1Cl (centres unmarked)    > 6.30
Cn1ncc(Cl)c1CC1c2cc(OC3CNC3)ccc2C(=O)N1Cc1ccc2[nH]nnc2c1 (centres unmarked)    > 6.30
Cn1ncc(Cl)c1CC1c2cccc(CC#N)c2C(=O)N1CC1CC2(CNC(=O)O2)C1 (centres unmarked)    ≤ 5.30

Prompt: human enzyme NAMPT (full length) (Homo sapiens, UniProt P43490) / pEC50 / O=C1NC(=O)C2(CC(CN3C(=O)c4ccccc4C3Cc3ncccc3Br)C2)O1 (centres unmarked) : value?
Completion: ≤ 5.30

Prompt: Can you check O=C1c2ccccc2C(Cc2ncccc2Br)N1Cc1ccc2[nH]nnc2c1 (centres unmarked) next?
Completion: > 6.30

Prompt: What about this molecule? CC(=O)c1ccc(CN2C(=O)c3ccccc3C2Cc2c(Cl)cnn2C)cc1 (centres unmarked)
Completion: 5.30 to 6.30

Prompt: Then what about the molecule Cc1nn(C)c(C#N)c1CC1c2ccccc2C(=O)N1Cc1ccc2[nH]nnc2c1 (centres unmarked) ?
Completion: > 6.30

Prompt: Also, CN1C[C@]2(C[C@H](CN3C(=O)c4ccccc4[C@@H]3Cc3c(Cl)cnn3C)C2)OC1=O please.
Completion: 5.30 to 6.30

Prompt: Same question for Cn1ncc(Cl)c1CC1c2cc(C3CC3)ccc2C(=O)N1Cc1ccc2[nH]nnc2c1 (centres unmarked) please.
Completion: > 6.30

Prompt: Entry to check: Cn1nc(C2CNC2)c(Cl)c1CC1c2ccccc2C(=O)N1Cc1ccc2[nH]nnc2c1 (centres unmarked)
Completion: > 6.30

====

- Target System: human enzyme NAMPT (full length) (Homo sapiens, UniProt P43490)
- Construct: human enzyme NAMPT (full length)
- Assay Text: NMN fluorescence biochemical assay (stimulation of NMN synthesis by NAMPT)
- Experimental Context: fold change of maximal activation compared to DMSO
Measurement Name: Enzymatic Emax

Consider the following illustrative entries.
N#Cc1ccc(CC2c3ccccc3C(=O)N2Cc2ccc3[nH]c(=O)oc3c2)c(F)c1 (centres unmarked) [Compound 199]    A (A>3)
CCC1c2ccccc2C(=O)N1Cc1ccc2[nH]c(=O)oc2c1 (centres unmarked) [Compound 53]    B (3≥B>2)
O=C1c2ccccc2C(Cc2ncccc2Cl)N1Cc1ccc2[nH]c(=O)oc2c1 (centres unmarked) [Compound 159]    A (A>3)
N#Cc1ccccc1CC1c2ccccc2C(=O)N1Cc1ccc2[nH]c(=O)oc2c1 (centres unmarked) [Compound 147]    A (A>3)
O=C1c2ccccc2C(Cc2ncccc2Br)N1Cc1ccc2[nH]c(=O)oc2c1 (centres unmarked) [Compound 205]    A (A>3)

Prompt: Provide the documented Enzymatic Emax with human enzyme NAMPT (full length) (Homo sapiens, UniProt P43490) as the system for N#CC1c2ccccc2C(=O)N1Cc1ccc(O)cc1 (centres unmarked) [Compound 28]
Completion: A (A>3)

Prompt: Another compound to check: N#Cc1cccc(Br)c1CC1c2ccccc2C(=O)N1Cc1ccc2[nH]c(=O)oc2c1 (centres unmarked) [Compound 200]
Completion: B (3≥B>2)

Prompt: Now consider Cn1ncc(Cl)c1CC1c2ccccc2C(=O)N1C/C=C/c1nn[nH]c1Cl (centres unmarked) [Compound 525] and answer again.
Completion: C (2≥C)

Prompt: Queued: Cn1ncc(Cl)c1CC1c2ccccc2C(C)(C)N1C/C=C/c1c[nH]nn1 (centres unmarked) [Compound 606]
Completion: A (A>3)

Prompt: What do you get for Cc1cc(CC2c3ccccc3C(=O)N2Cc2ccc3[nH]c(=O)oc3c2)ccn1 (centres unmarked) [Compound 179] ?
Completion: B (3≥B>2)
